- System: HCT-116
- ASSAY INFO: Cytotoxicity against human HCT116 cells after 72 hrs by methylene blue staining based assay
- Assay type: functional, cell-based
- CONDITIONS USED: HCT-116, 72 h
MEASUREMENT NAME: pIC50
In textbook form, pIC50 equals minus log to base ten of the concentration in mol/L.

As a guide, the following entries are already answered.
INSERT INTO measurements (smiles_str, measurement_name, endpoint_result) VALUES
  ('CO/N=C(/C(=O)OC)c1ccccc1COc1cccc(OCc2ccc(Cl)cc2)c1', 'pIC50', 5.79),
  ('C=Cc1ccc(COc2cccc(OCc3ccccc3/C(=N\OC)C(=O)OC)c2)cc1', 'pIC50', 5.90);

Consider the additional compound presented here.
Missing value: pIC50, HCT-116, entry CO/N=C(/C(=O)OC)c1ccccc1COc1cccc(OCc2cc(C(F)(F)F)cc(C(F)(F)F)c2)c1 . Fill in?
5.87
